Test: Primary imaging screen for DUSP6 inhibitors that restore phospho-Erk in transfected HeLa cells, chemical complementation (AID 609)
Details: HeLa MKP-3 transfected, phospho-Erk imaging KS statistic; measured here: cell density z-score; at 10 µM; cells stimulated with TPA for 15 min
This listing pairs molecules with measured z-score.
measuredQuantity: z-score

# molecule, recordedResult
rows = [
    ("Cc1cccc(CN2CCN(C(c3ccccc3)c3ccc(Cl)cc3)CC2)c1 (stereo not drawn)", -0.832),
    ("COc1ccc(-c2coc3cc(O)cc(O)c3c2=O)cc1", -0.996),
    ("Cc1cccc(Nc2ccccc2C(=O)O)c1C", -1.12),
    ("COc1ccc([C@@H]2Sc3ccccc3N(CCN(C)C)C(=O)[C@@H]2OC(C)=O)cc1", 0.794),
    ("CCn1cc(/C=N/O)c(C)n1", 1.83),
    ("O=C1NC(=O)C(c2ccccc2)(c2ccccc2)N1", 0.136),
    ("CC1(C)S[C@@H]2[C@H](NC(=O)[C@H](N)c3ccccc3)C(=O)N2[C@H]1C(=O)O", -0.832),
    ("O=C(CCN1CCc2ccccc2CC1)c1ccc2c(c1)OCCO2", 1.21),
    ("CN(C)C(=O)Oc1ccc[n+](C)c1", -0.869),
    ("CN1[C@@H]2CC(OC(=O)[C@H](CO)c3ccccc3)C[C@H]1[C@@H]1O[C@@H]12 (stereo partly drawn)", 0.18),
    ("CN(C)CCCN1c2ccccc2Sc2ccc(C(F)(F)F)cc21", -0.783),
    ("Cc1ncc([N+](=O)[O-])n1CCO", 0.289),
    ("O=P(Cc1nnco1)(c1ccccc1)c1ccccc1", 0.578),
]

###

Assay: endothelial E-selectin expression blockers – imaging, HUVEC, immunofluorescence, MLSMR starter and 10KST1 sets, primary screen (AID 487);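 further: 100% = median nuclei count of all wells on the same plate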
Conditions: HUVEC TNFalpha-induced E-selectin immunofluorescence imaging, at 2 µM; measured here: cell number, toxicity
This listing pairs compounds with measured nuclei count.

# compound, nuclei count / %
measured = [
    ("Cc1ccc(C(=O)Nc2nc3c(s2)CCCC3)o1", 120),
    ("COc1ccc(C(F)(F)F)cc1NC(=O)c1nc2nc(C)cc(C(F)F)n2n1", 103),
    ("COc1ccc2c(=O)c3c(=O)n(Cc4ccco4)c(C(C)C)nc3oc2c1", 107),
    ("COc1cccc(C(=O)Nc2ccc(N(C)C)cc2)c1OC", 109),
    ("COc1cccc2cc(C(=O)n3ccc(C)n3)c(=O)oc12", 88.2),
    ("CCCn1c(NCc2ccc3c(c2)OCO3)nc2ccccc21", 93.5),
    ("CCOC(=O)C1=C(CN2CCOCC2)NC(=O)NC1c1cc(C)ccc1C (configuration not stated)", 108),
    ("Cc1ccc2c(COn3nnc4ccc(S(=O)(=O)N(C)C)cc43)cc(=O)oc2c1C", 94.7),
    ("N#CC1=C(N)N(c2ccccc2)C2=C(C(=O)CCC2)C1c1cccs1 (configuration not stated)", 98.1),
    ("O=C(Nc1ccc(Cl)cc1C(=O)Nc1ccncc1)c1ccco1", 101),
    ("Cc1cc(C(C)(C)C)c(O)c(C)c1CC1=NCCN1", 134),
    ("COc1cccc(NC(=O)CN2CCN(c3ccccc3F)CC2)c1", 86.8),
    ("CC(NC(=O)CSc1n[nH]c(=O)n1C1CC1)C12CC3CC(CC(C3)C1)C2 (configuration not stated)", 110),
    ("Cc1cc(NS(=O)(=O)c2ccccc2)n(-c2ccccc2)n1", 106),
    ("CCn1c(SCC(=O)Nc2nnc(C)s2)nnc1-c1ccncc1", 114),
    ("CCN1C(=O)NC(c2cc(Br)ccc2OC)C(C(=O)OC)=C1C (configuration not stated)", 89.2),
    ("COc1ccc(OC)c(NC(=O)c2cn(C)c(=O)c3cc(OC)c(OC)cc23)c1", 119),
]

###

Test: endothelial E-selectin expression blockers – imaging, HUVEC, immunofluorescence, MLSMR starter and 10KST1 sets, primary screen (AID 487);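 further: 100% = median nuclei count of all wells on the same plate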
Conditions: HUVEC TNFalpha-induced E-selectin immunofluorescence imaging, at 2 µM; measured here: cell number, toxicity
This listing pairs compounds with measured nuclei count.
measuredQuantity: nuclei count (%)

# compound, measuredQuantity, recordedResult
rows = [
    ("Cc1cnc(C(=O)Nc2ccc(-n3cnnn3)cc2)cn1", "nuclei count", 95.7),
    ("CC(C)(C)N(Cc1cc2ccccc2[nH]c1=O)C(=O)C1CCCCC1", "nuclei count", 95.6),
    ("Cc1ncoc1C(=O)Nc1cccc(Cl)c1C", "nuclei count", 116),
    ("COC(=O)c1oc2ccc(OC)cc2c1N", "nuclei count", 101),
    ("CN(c1cccc(NC(=O)COc2ccccc2)c1)S(C)(=O)=O", "nuclei count", 111),
    ("O=C(NCc1ccco1)c1noc2c1CCCCC2", "nuclei count", 117),
    ("CCOC(=O)C(NC(=O)C1CCCN1C(=O)OCc1ccccc1)C(=O)OCC (configuration not stated)", "nuclei count", 97.9),
    ("O=C(NCC1CCCCN1)c1cc(OCC(F)(F)F)ccc1OCC(F)(F)F (configuration not stated)", "nuclei count", 107),
    ("CCOC(=O)C1CCCN(C(=O)CNS(=O)(=O)c2ccc(Br)s2)C1 (configuration not stated)", "nuclei count", 113),
    ("CCN(CC)c1ccc(NC(=O)c2[nH]c(C)c(C(C)=O)c2C)c(C)c1", "nuclei count", 136),
    ("O=C(CN1C(=O)COc2ccccc21)NCCCN1CCN(Cc2ccccc2)CC1", "nuclei count", 232),
    ("COC(=O)c1ccc(CSc2ncnc3c2nnn3-c2ccc(OC)cc2)o1", "nuclei count", 113),
    ("CC(NC(=O)OCc1ccccc1)C(=O)N1CC(O)CC1C(=O)O (configuration not stated)", "nuclei count", 85.4),
    ("CCCCn1nnnc1SCC(=O)N1CCN(C(=O)c2ccco2)CC1", "nuclei count", 83.9),
    ("COc1cc(C(=O)Nc2cc(Cl)ccc2C)c(-n2cnnn2)cc1OC", "nuclei count", 117),
    ("CC(C)CCNC(=O)NC(=O)CSc1nnc(-c2ccccc2Br)o1", "nuclei count", 125),
    ("CCCC1O[C@@H]2C[C@H]3[C@@H]4CCC5=CC(=O)C=C[C@]5(C)[C@H]4[C@@H](O)C[C@]3(C)[C@]2(C(=O)CO)O1 (some centres not stated)", "nuclei count", 138),
]

###

Assay: inhibitors of TNFa-induced NFkB p65 translocation, primary screen, imaging, HUVEC, MLSMR starter and 10KST1 sets (AID 438);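 further: compound added about 3h40 before a 20 min TNFalpha stimulation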
Settings: HUVEC TNFa-induced p65 nuclear translocation; measured here: nuclei count (cytotoxicity indicator), at 2.08 µM

# molecule, cell count
rows = [
    ("Cc1ccc(C)c(SCC(=O)Nc2nnc(-c3ccccc3)o2)c1", 395),
    ("O=C(CN1C(=O)CCSc2ccccc21)Nc1ccc2c(c1)OCO2", 700),
    ("S=c1[nH]nc(COc2ccccc2)n1C1CCCCC1", 552),
    ("N#Cc1c(N)n(CCNC(=O)c2cccs2)c2nc3ccccc3nc12", 578),
    ("COc1ccc2cc([C@H](C)C(=O)O)ccc2c1", 649),
    ("CCCC(C(=O)NCc1ccco1)N(C(=O)CNS(=O)(=O)c1ccc(Cl)cc1)C1CCCC1 (centres undefined)", 387),
    ("COc1ccc(Cc2nnc3n2N=C(c2cc4ccccc4o2)CS3)cc1OC", 378),
    ("COc1ccc(CCNS(=O)(=O)c2ccc(C(=O)NCc3ccco3)cc2)cc1OC", 355),
    ("CCOC(=O)c1sc(C)c2c(=O)n(CC)nnc12", 304),
    ("O=C(O)CSc1ccc2ccccc2n1", 418),
    ("COc1cc(-c2nnc(SCC(=O)c3ccc(C)cc3)o2)cc(OC)c1OC", 378),
    ("O=C(c1nc2n(n1)C(c1ccc(Cl)cc1)C=C(c1ccccc1)N2)N1CCOCC1 (centres undefined)", 811),
    ("O=C1c2oc3ccccc3c(=O)c2C(c2ccccn2)N1Cc1ccccc1 (centres undefined)", 440),
    ("Cc1ccccc1CN1CCNC1=O", 624),
    ("Cc1cccc(N2CCN(C(=O)c3cc4c(=O)[nH]c5ccccc5c4n3C)CC2)c1C", 228),
    ("CCOCCCNc1ncnc2c1[nH]c1ccccc12", 252),
    ("CC1(C)Cc2noc(N)c2C(C)(C)N1OC(=O)c1cccs1", 379),
    ("O=C(COC(=O)C1(c2ccccc2F)CCCC1)NC1CCS(=O)(=O)C1 (centres undefined)", 804),
    ("Cc1ccc(S(=O)(=O)N2CCOCC2)cc1C(=O)OCC(=O)N1CCc2ccccc2C1", 538),
    ("Cn1cnnc1Sc1nc2c(c(=O)n(C)c(=O)n2C)n1C", 613),
    ("CCOc1ccccc1NC(=O)C1CCCN(C(=O)NCc2ccccc2)C1 (centres undefined)", 684),
    ("O=C(COC(=O)Cc1cccc(C(F)(F)F)c1)NCC1CCCO1 (centres undefined)", 704),
    ("Cc1cc(C)n(-c2nc(C)nc3c2cnn3-c2ccccc2)n1", 427),
    ("Brc1ccc(-c2nnc3sc(CN4CCC5(CC4)OCCO5)cn23)cc1", 414),
    ("Cc1cc(NC(=O)CSc2nc3ccsc3c(=O)n2NC(=O)c2ccccc2)no1", 317),
    ("COCCN1C(=O)C(=O)/C(=C(/O)c2ccc(OC(C)C)cc2)C1c1cccnc1 (centres undefined)", 644),
    ("COC(=O)C1=C(C)Nc2nnnn2C1c1ccc(Cl)cc1Cl (centres undefined)", 433),
    ("CC(C)NC(=O)CSc1nnc(-c2ccc(C(C)(C)C)cc2)n1C", 563),
    ("COC(=O)c1cc(Br)c(=O)n(CCN2CCOCC2)c1", 563),
    ("CCOc1ccccc1Nc1ncnc2ccccc12", 394),
    ("COC(=O)c1cccc(NC(=O)NC2CCCN2S(=O)(=O)c2ccc(Cl)cc2)c1 (centres undefined)", 612),
    ("Cc1ccccc1NC(=O)N1C2CCCC1CC(NC(=O)C1CC1)C2 (centres undefined)", 747),
    ("Cc1ccc(NC(=O)Nc2ccc3c(c2)N(C)C(=O)CS3)nc1", 562),
    ("COc1ccccc1-c1nnc2sc(-c3ccc(N(C)C)cc3)nn12", 695),
]

Reference source: PubChem BioAssay
